# Tested on: Tov112D
# Experimental details: Primary qHTS to identify gynecologic anti-cancer compounds using libraries of approved drugs and bioactive compounds (AID 1345084); also: % is scaled to controls: 0 for no effect and ±100 for the full control effect; nearly all actives have a fitted effect of over 55% in size
# Test context: Gynecologic cancer cell panel viability, ATPlite luminescence, 48 h; series mostly up to 57.5 µM
Inconclusive results are not listed. Calls of active or inactive are those of the source. Calls follow the shape of the dose curve; as a rule, active = well fitted cell-killing curve with a large enough effect; inconclusive = small, poorly fitted or top-dose-only effect, or effect the other way; inactive = flat fitted curve, though single readings scatter.
Property label: activity change, negative = cytotoxicity

Completed entries (count: 3):
[
  {
    "Compound": "C[C@@H]1O[C@@H](O[C@H]2[C@H](O[C@H]3CC[C@@]4(C)C(CC[C@]5(C)C4C=C[C@]46OC[C@@]7(CCC(C)(C)C[C@H]74)[C@@H](O[C@@H]4O[C@@H](C)[C@H](O)[C@@H](O)[C@H]4O)C[C@]65C)[C@]3(C)CO)O[C@H](CO)[C@@H](O)[C@@H]2O[C@@H]2O[C@H](CO)[C@@H](O)[C@H](O)[C@H]2O)[C@H](O)[C@H](O)[C@H]1O (stereo partly specified)",
    "Property label": "activity change, negative = cytotoxicity",
    "Reading": "-0.84% [at 11.6 µM] (inactive)"
  },
  {
    "Compound": "C/C=C(/C)C(=O)O[C@H]1[C@H](OC(=O)/C(C)=C\\C)[C@@]23C(CC1(C)C)[C@]1(CCC4[C@@]5(C)CC[C@H](O[C@@H]6O[C@H](C(=O)O)[C@@H](O)[C@H](O[C@@H]7O[C@H](CO)[C@H](O)[C@H](O)[C@H]7O[C@@H]7O[C@@H](C)[C@H](O)[C@@H](O)[C@H]7O[C@@H]7OC[C@@H](O)[C@H](O)[C@H]7O)[C@H]6O[C@@H]6O[C@H](CO)[C@H](O)[C@H](O)[C@H]6O)C(C)(C)C5CC[C@@]4(C)[C@]1(C)C[C@H]2O)O[C@H]3O (stereo partly specified)",
    "Property label": "activity change, negative = cytotoxicity",
    "Reading": "-22.5% [at 6.55 µM] (inactive)"
  },
  {
    "Compound": "CC(=O)O[C@@H]1[C@@H](O)[C@H](O[C@@H]2[C@@H](O)[C@@H](O)[C@H](O[C@H]3[C@H](O[C@H]4[C@H](O[C@H]5CC[C@@]6(C)C(CC[C@]7(C)C6CC=C6[C@@H]8CC(C)(C)CC[C@]8(C(=O)O)CC[C@]67C)[C@]5(C)CO)O[C@H](CO)[C@@H](O)[C@@H]4O)OC[C@@H](O)[C@@H]3O)O[C@H]2C)OC[C@H]1O (stereo partly specified)",
    "Property label": "activity change, negative = cytotoxicity",
    "Reading": "-6.37% [at 11.6 µM] (inactive)"
  }
]

Provide reported activity change, negative = cytotoxicity for each item, in the same order as listed.
1. CCC(C)(OC(C)=O)C(=O)O[C@H]1[C@H](OC(C)=O)[C@]2(CO)[C@H](O)[C@H](O)[C@]3(C)C(=CCC4[C@@]5(C)CC[C@H](O[C@@H]6O[C@H](C(=O)O)[C@@H](O)[C@H](O[C@@H]7OC[C@H](O)[C@H](O[C@@H]8OC[C@H](O)[C@H](O)[C@H]8O)[C@H]7O)[C@H]6O[C@@H]6O[C@H](CO)[C@@H](O)[C@H](O)[C@H]6O)C(C)(C)C5CC[C@]43C)[C@@H]2CC1(C)C (stereo partly specified)
2. CC1OC(OC2C(O)COC(O[C@@H]3[C@@H](O)[C@@H](O)[C@H](OC4C(OC(=O)[C@]56CCC(C)(C)CC5C5=CCC7[C@@]8(C)C[C@H](O)[C@H](OC9OC(CO)C(O)C(O)C9O)[C@@](C)(CO)C8[C@H](O)C[C@@]7(C)[C@]5(C)CC6)OCC(O)C4O)O[C@H]3C)C2O)C(O)C(O)C1O (stereo partly specified)
3. COc1ccc(CN2CCN(CCCSc3cc(C(C)(C)C)c(O)c(C(C)(C)C)c3)CC2)c(OC)c1OC

["-10.5% [at 6.55 µM] (inactive)", "-9.06% [at 6.55 µM] (inactive)", "2.48% [at 11.6 µM] (inactive)"]

// data source = PubChem BioAssay (NCATS)
